Source listed as the supplement of paper PMC10567573.

B1: PPP2R2C (parent)
chain: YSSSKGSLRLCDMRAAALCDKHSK

Variants of: B1
protocol: protein stability index of a GFP-peptide fusion (GPS, HEK-293T) (PSI 1-6); higher = more stable;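 further: lentivirally expressed fusions sorted by FACS into six bins by GFP to DsRed ratio, PSI derived from sequencing read proportions per bin multiplied by bin number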
conditions: c terminus: a fixed tail appended
Parameter threshold = 2. Response is fulfilled when protein stability index meets or exceeds it, else not fulfilled.

# count of solved cases: 5
variant-description | assigned-class
A17T | not fulfilled
D12R | fulfilled
C19A | not fulfilled
D20R | fulfilled
R9F | fulfilled

# input Hi, just wondering whether A15N shows protein stability index of 2 or higher.
# output fulfilled

# input Dear colleague, could you confirm whether H22T has protein stability index at or above 2?
# output fulfilled
